Biological target: Prostaglandin D2 receptor 2 (Homo sapiens, UniProt Q9Y5Y4)
Sequence (Q9Y5Y4 whole entry): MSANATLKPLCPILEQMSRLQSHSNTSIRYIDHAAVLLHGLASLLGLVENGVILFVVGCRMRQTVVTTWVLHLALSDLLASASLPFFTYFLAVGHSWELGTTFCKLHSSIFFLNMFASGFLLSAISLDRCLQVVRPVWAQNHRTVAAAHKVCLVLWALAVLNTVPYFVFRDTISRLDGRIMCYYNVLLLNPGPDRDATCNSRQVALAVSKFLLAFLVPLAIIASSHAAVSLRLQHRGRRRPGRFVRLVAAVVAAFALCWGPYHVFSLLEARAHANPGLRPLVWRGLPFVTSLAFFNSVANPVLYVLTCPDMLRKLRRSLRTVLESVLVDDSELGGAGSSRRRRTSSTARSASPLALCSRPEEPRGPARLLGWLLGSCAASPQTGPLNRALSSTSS
Assay: Antagonist activity at human CRTH2 transfected in human KB8 cells assessed as inhibition of PGD2-induced increase in intracellular Ca2+ by fluo-4AM dye-based assay
Type: functional, cell-based
Consider the cut-off 0.09 µM. If the recorded IC50 is strictly smaller, the label is true; if not, the label is false.

1. O=C(O)Cc1cnc(C(=O)c2ccc(NC(=O)C3CCOCC3)cc2)c2ccccc12 :: false
2. O=C(O)Cc1cnc(C(=O)c2ccc(NC(=O)c3cscn3)cc2)c2ccccc12 :: false
3. O=C(O)Cc1cnc(C(=O)c2ccc(NC(=O)C3CCCCC3)cc2)c2ccccc12 :: false
4. Cc1ccc(C(=O)Nc2ccc(C(=O)c3ncc(CC(=O)O)c4ccccc34)cc2)cc1 :: true
5. O=C(O)Cc1cnc(C(=O)c2ccc(NC(=O)c3cc4ccccc4o3)cc2)c2ccccc12 :: true
6. O=C(O)COc1cnc(C(=O)c2ccc(C(=O)NCCc3ccc(Cl)cc3)cc2)c2ccccc12 :: false
7. O=C(O)Cc1cnc(C(=O)c2ccc(NC(=O)c3ccc(Cl)c(Cl)c3)cc2)c2ccccc12 :: true
8. O=C(O)Cc1cnc(C(=O)c2ccc(C(=O)NCCc3ccc(Cl)cc3)cc2)c2ccccc12 :: true
9. O=C(O)Cc1cnc(C(=O)c2ccc(OCCCc3ccc(Cl)cc3)cc2)c2ccccc12 :: true

Source: ChEMBL document CHEMBL3091404
